# Tested on: HCI-017.E2 (organoid from an ER-positive breast cancer xenograft)
# experimental.details: CTG-3D luminescence at 96 h relative to day-0 seeding control (ratio to day 0); higher = more growth / less cytotoxicity; PDxO 3D drug screen (set 2), 96 h, CTG-3D normalised to day-0 seeding control.
# condition.info: 625 fM
Items are presented alongside their recorded CTG-3D luminescence at 96 h.
Hey, just send me the number, nothing else.

Some solved entries appear below for comparison.
>  <molecule>
CS(=O)(=O)CCNCc1ccc(-c2ccc3ncnc(Nc4ccc(OCc5cccc(F)c5)c(Cl)c4)c3c2)o1 [lapatinib]

>  <CTG-3D luminescence at 96 h>
2.65

$$$$
>  <molecule>
C[C@@H](Nc1cc(F)cc(F)c1)c1cc(C(=O)N(C)C)cc2c(=O)cc(N3CCOCC3)oc12 [AZD-8186]

>  <CTG-3D luminescence at 96 h>
2.74

$$$$
>  <molecule>
CC(=O)O[C@@]12CO[C@@H]1C[C@H](O)[C@@]1(C)C(=O)[C@H](O)C3=C(C)[C@@H](OC(=O)[C@H](O)[C@@H](NC(=O)OC(C)(C)C)c4ccccc4)C[C@@](O)([C@@H](OC(=O)c4ccccc4)[C@H]21)C3(C)C [docetaxel]

>  <CTG-3D luminescence at 96 h>
1.38

$$$$
>  <molecule>
CO[C@H]1C[C@@H]2CC[C@@H](C)[C@@](O)(O2)C(=O)C(=O)N2CCCC[C@H]2C(=O)O[C@H]([C@H](C)C[C@@H]2CC[C@@H](O)[C@H](OC)C2)CC(=O)[C@H](C)/C=C(\C)[C@@H](O)[C@@H](OC)C(=O)[C@H](C)C[C@H](C)/C=C/C=C/C=C/1C [rapamycin]

>  <CTG-3D luminescence at 96 h>
1.58

$$$$

Ask | GET CTG-3D luminescence at 96 h | system: HCI-017.E2 | item: Nc1cc(C(F)(F)F)c(-c2cc(N3CCOCC3)nc(N3CCOCC3)n2)cn1 [buparlisib]
Reply | 2.26

* * *

# System: HCI-015 (organoid from a triple-negative breast cancer xenograft)
# experimental.details: CTG-3D luminescence at 96 h relative to day-0 seeding control (ratio to day 0); higher = more growth / less cytotoxicity; PDxO 3D drug screen, 96 h, CTG-3D normalised to day-0 seeding control.
# condition.info: 0.005 µM; days in culture: 191
Measured CTG-3D luminescence at 96 h, listed per entry for reference.
Just the number, please, no unit attached.

Sample records with CTG-3D luminescence at 96 h:
>  <compound>
NC(=O)Nc1cc(-c2cccc(F)c2)sc1C(=O)N[C@H]1CCCNC1

>  <assayed.target>
HCI-015

>  <assay.value>
1.11

$$$$
>  <compound>
NC1(C(=O)N[C@@H](CCO)c2ccc(Cl)cc2)CCN(c2nc[nH]c3nccc2-3)CC1

>  <assayed.target>
HCI-015

>  <assay.value>
1.53

$$$$

Ask | Find the measured CTG-3D luminescence at 96 h of CS(=O)(=O)c1ccc(C(=O)Nc2ccc(Cl)c(-c3ccccn3)c2)c(Cl)c1 and report it.
Reply | 1.77

Ask | Give the reported CTG-3D luminescence at 96 h for this compound. CCc1c2c(nc3ccc(O)cc13)-c1cc3c(c(=O)n1C2)COC(=O)[C@]3(O)CC
Reply | 0.538

Ask | Please report the measured CTG-3D luminescence at 96 h for C[C@]12CC[C@@H]3c4ccc(O)cc4C[C@@H](CCCCCCCCC[S+]([O-])CCCC(F)(F)C(F)(F)F)[C@H]3[C@@H]1CC[C@@H]2O (stereo partly drawn)
Reply | 1.29

Ask | Read the entry CCN(c1cc(C#CCN2CCOCC2)cc(C(=O)NCc2c(C)cc(C)[nH]c2=O)c1C)[C@H]1CC[C@H](N(C)CCOC)CC1 and write its reported CTG-3D luminescence at 96 h.
Reply | 1.92

Ask | Input CCN1CCN(Cc2ccc(Nc3ncc(F)c(-c4cc(F)c5nc(C)n(C(C)C)c5c4)n3)nc2)CC1 , output reported CTG-3D luminescence at 96 h.
Reply | 1.23

Ask | Recall and state the measured CTG-3D luminescence at 96 h for O=C(/C=C/c1cccnc1)NCCCCC1CCN(C(=O)c2ccccc2)CC1 .
Reply | 0.805

* * *

Documented CTG-3D luminescence at 96 h across a set of molecules
# System: HCI-001 (organoid from a triple-negative breast cancer xenograft)
# experimental.details: CTG-3D luminescence at 96 h relative to day-0 seeding control (ratio to day 0); higher = more growth / less cytotoxicity; PDxO 3D drug screen, 96 h, CTG-3D normalised to day-0 seeding control.
# condition.info: 625 fM; days in culture: 346
Answer with a bare number; do not write a unit.

Observe how each entry below is paired with its result.
>  <molecule>
CC(C)n1nc(-c2ccc3oc(N)nc3c2)c2c(N)ncnc21 [sapanisertib]

>  <reported.property>
CTG-3D luminescence at 96 h

>  <assay.value>
1.13

$$$$
>  <molecule>
NC(=O)Nc1cc(-c2cccc(F)c2)sc1C(=O)N[C@H]1CCCNC1 [AZD7762]

>  <reported.property>
CTG-3D luminescence at 96 h

>  <assay.value>
1.21

$$$$
>  <molecule>
O=C(O)C1(C(=O)O)CCC1.[NH2-].[NH2-].[Pt+2] [carboplatin]

>  <reported.property>
CTG-3D luminescence at 96 h

>  <assay.value>
1.35

$$$$
>  <molecule>
O=C(/C=C/c1cccnc1)NCCCCC1CCN(C(=O)c2ccccc2)CC1 [FK866]

>  <reported.property>
CTG-3D luminescence at 96 h

>  <assay.value>
1.08

$$$$
>  <molecule>
CNC(=O)c1cccc(-c2ccc3c(N4CCOC[C@@H]4C)nc(N4CCOC[C@@H]4C)nc3n2)c1 [vistusertib]

>  <reported.property>
CTG-3D luminescence at 96 h

>  <assay.value>
1.28

$$$$

// next entry
Ask | Input Cc1cc(Nc2ncc(Cl)c(Nc3ccccc3S(=O)(=O)C(C)C)n2)c(OC(C)C)cc1C1CCNCC1 [ceritinib] , output reported CTG-3D luminescence at 96 h.
Reply | 1.39

* * *

# Tested on: HCI-002 (organoid from a triple-negative breast cancer xenograft)
# experimental.details: CTG-3D luminescence at 96 h relative to day-0 seeding control (ratio to day 0); higher = more growth / less cytotoxicity; PDxO 3D drug screen, 96 h, CTG-3D normalised to day-0 seeding control.
# condition.info: 0.00025 µM; days in culture: 91
Below, each of the compounds is paired with its reported CTG-3D luminescence at 96 h value.
Note: the reply should be a number with no unit written.

Answered cases to consult:
>  <smiles.string>
NC(=O)c1cccc2cn(-c3ccc([C@@H]4CCCNC4)cc3)nc12

>  <assayed.target>
HCI-002

>  <CTG-3D luminescence at 96 h>
2.3

$$$$
>  <smiles.string>
C=CC(=O)N1CCC[C@@H](n2nc(-c3ccc(Oc4ccccc4)cc3)c3c(N)ncnc32)C1

>  <assayed.target>
HCI-002

>  <CTG-3D luminescence at 96 h>
3.44

$$$$

Ask | State its CTG-3D luminescence at 96 h for this compound: CS(=O)(=O)c1ccc(C(=O)Nc2ccc(Cl)c(-c3ccccn3)c2)c(Cl)c1
Reply | 2.4

Ask | Let me know recorded CTG-3D luminescence at 96 h for C[C@@H]1COCCN1c1cc(C2([S@](C)(=N)=O)CC2)nc(-c2cc[nH]c3nccc2-3)n1 , thanks.
Reply | 3.4

* * *

# System: HCI-017.E2
# experimental.details: CTG-3D luminescence at 96 h relative to day-0 seeding control (ratio to day 0); higher = more growth / less cytotoxicity; PDxO 3D drug screen, 96 h, CTG-3D normalised to day-0 seeding control.
# condition.info: 625 fM; days in culture: 85
Reported CTG-3D luminescence at 96 h is given for each of the following compounds.
Answer with the value's number alone.

Worked set:
>  <compound>
CC[C@H](NC(=O)[C@H](C)NC)C(=O)N1C[C@@H](O)C[C@H]1Cc1c(-c2[nH]c3cc(F)ccc3c2C[C@@H]2C[C@H](O)CN2C(=O)[C@H](CC)NC(=O)[C@H](C)NC)[nH]c2cc(F)ccc12

>  <assayed.target>
HCI-017.E2

>  <CTG-3D luminescence at 96 h>
2.6

$$$$
>  <compound>
CN(Cc1cnc2nc(N)nc(N)c2n1)c1ccc(C(=O)N[C@@H](CCC(=O)O)C(=O)O)cc1 [methotrexate]

>  <assayed.target>
HCI-017.E2

>  <CTG-3D luminescence at 96 h>
2.34

$$$$
>  <compound>
C[C@]12CC[C@@H]3c4ccc(O)cc4C[C@@H](CCCCCCCCC[S+]([O-])CCCC(F)(F)C(F)(F)F)[C@H]3[C@@H]1CC[C@@H]2O (stereo not given in full)

>  <assayed.target>
HCI-017.E2

>  <CTG-3D luminescence at 96 h>
2.52

$$$$
>  <compound>
O=C(O)C1(C(=O)O)CCC1.[NH2-].[NH2-].[Pt+2]

>  <assayed.target>
HCI-017.E2

>  <CTG-3D luminescence at 96 h>
2.62

$$$$
>  <compound>
COc1cc2c(Oc3ccc4[nH]c(C)cc4c3F)ncnc2cc1OCCCN1CCCC1

>  <assayed.target>
HCI-017.E2

>  <CTG-3D luminescence at 96 h>
2.35

$$$$

Ask | State, in one line, measured CTG-3D luminescence at 96 h of C=CCn1c(=O)c2cnc(Nc3ccc(N4CCN(C)CC4)cc3)nc2n1-c1cccc(C(C)(C)O)n1
Reply | 2.77

Ask | Tell me its CTG-3D luminescence at 96 h given CC(=O)O[C@H]1C(=O)[C@@]2(C)[C@H]([C@H](OC(=O)c3ccccc3)[C@]3(O)C[C@H](OC(=O)[C@H](O)[C@@H](NC(=O)c4ccccc4)c4ccccc4)C(C)=C1C3(C)C)[C@]1(OC(C)=O)CO[C@@H]1C[C@@H]2O as the entry.
Reply | 1.92

Ask | Name the recorded CTG-3D luminescence at 96 h of the item CCN1CCN(Cc2ccc(Nc3ncc(F)c(-c4cc(F)c5nc(C)n(C(C)C)c5c4)n3)nc2)CC1 in your answer.
Reply | 3.16

Ask | Tell me measured CTG-3D luminescence at 96 h for Nc1ccn([C@@H]2O[C@H](CO)[C@@H](O)C2(F)F)c(=O)n1 please.
Reply | 2.11

Ask | Check the records and state CTG-3D luminescence at 96 h for C=CC(=O)N1CCC[C@@H](n2nc(-c3ccc(Oc4ccccc4)cc3)c3c(N)ncnc32)C1
Reply | 2.31
